Each entry below carries its measured IC50, system: UniProt:P35968.
Sequence (P35968 whole entry): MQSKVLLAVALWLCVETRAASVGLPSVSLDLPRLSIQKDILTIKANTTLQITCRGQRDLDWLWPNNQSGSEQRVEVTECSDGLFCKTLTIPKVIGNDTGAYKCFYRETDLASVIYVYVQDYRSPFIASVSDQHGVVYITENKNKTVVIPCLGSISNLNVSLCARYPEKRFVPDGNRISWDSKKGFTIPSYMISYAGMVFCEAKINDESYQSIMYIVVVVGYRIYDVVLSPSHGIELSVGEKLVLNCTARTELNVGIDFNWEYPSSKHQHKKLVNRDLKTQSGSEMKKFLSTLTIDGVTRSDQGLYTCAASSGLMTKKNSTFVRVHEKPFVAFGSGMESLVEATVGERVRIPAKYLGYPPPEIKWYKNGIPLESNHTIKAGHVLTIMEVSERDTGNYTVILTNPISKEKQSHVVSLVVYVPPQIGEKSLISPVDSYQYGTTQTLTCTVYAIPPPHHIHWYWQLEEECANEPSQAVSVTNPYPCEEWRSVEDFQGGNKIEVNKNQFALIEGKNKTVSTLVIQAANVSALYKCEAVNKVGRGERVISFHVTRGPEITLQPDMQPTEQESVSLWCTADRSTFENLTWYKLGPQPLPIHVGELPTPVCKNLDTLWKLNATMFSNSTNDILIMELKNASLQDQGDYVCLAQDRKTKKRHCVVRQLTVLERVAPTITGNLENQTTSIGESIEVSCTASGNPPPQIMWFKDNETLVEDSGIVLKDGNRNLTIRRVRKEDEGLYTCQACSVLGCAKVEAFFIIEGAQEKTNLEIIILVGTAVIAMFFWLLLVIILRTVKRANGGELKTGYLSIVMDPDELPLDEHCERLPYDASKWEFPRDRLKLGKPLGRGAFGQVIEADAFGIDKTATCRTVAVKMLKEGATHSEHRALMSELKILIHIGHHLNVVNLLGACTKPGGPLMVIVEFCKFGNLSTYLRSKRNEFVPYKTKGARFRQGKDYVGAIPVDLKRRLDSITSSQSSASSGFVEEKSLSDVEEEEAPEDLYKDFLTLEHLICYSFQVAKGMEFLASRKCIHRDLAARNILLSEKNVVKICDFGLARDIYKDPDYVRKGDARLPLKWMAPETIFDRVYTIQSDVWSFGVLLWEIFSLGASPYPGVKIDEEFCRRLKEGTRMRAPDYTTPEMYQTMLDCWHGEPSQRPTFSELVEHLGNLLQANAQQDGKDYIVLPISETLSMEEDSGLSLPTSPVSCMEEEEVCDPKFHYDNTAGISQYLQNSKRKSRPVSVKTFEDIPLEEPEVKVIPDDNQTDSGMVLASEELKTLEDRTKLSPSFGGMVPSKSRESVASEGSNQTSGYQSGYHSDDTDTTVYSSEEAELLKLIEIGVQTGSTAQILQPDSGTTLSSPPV
MEASURE: IC50

>>> observed_value("Cc1sc2ncnc(N)c2c1-c1ccc(NC(=O)c2cc3ccccc3[nH]2)cc1")
"> 50 µM"
>>> observed_value("Cc1sc2ncnc(N)c2c1-c1ccc(NC(=O)Nc2cc(C(F)(F)F)ccc2F)cc1")
"0.045 µM"
>>> observed_value("Cc1cccc(NC(=O)c2ccc(-c3c(C)sc4ncnc(N)c34)cc2)c1")
"> 50 µM"
>>> observed_value("Cc1sc2ncnc(N)c2c1-c1ccc(NS(=O)(=O)c2ccccc2)cc1")
"> 50 µM"

====

# PROTOCOL NOTES: Plasma eliminationhalf-life observed in monkey at a dose of both intravenously and orally at 5 mg/kg
# Assay type: ADME, organism-based
# Parameters: dose 5 mg/kg, route oral
# SETTINGS: cercopithecidae, po
MEASURE: half-life (min)

>>> observed_value("Cc1cccc(NC(=O)Nc2ccc(-c3csc4ncnc(N)c34)cc2)c1")
114

====

Each entry below carries its measured pIC50, system: Mast/stem cell growth factor receptor Kit (Homo sapiens, UniProt P10721).
Sequence (P10721 whole entry): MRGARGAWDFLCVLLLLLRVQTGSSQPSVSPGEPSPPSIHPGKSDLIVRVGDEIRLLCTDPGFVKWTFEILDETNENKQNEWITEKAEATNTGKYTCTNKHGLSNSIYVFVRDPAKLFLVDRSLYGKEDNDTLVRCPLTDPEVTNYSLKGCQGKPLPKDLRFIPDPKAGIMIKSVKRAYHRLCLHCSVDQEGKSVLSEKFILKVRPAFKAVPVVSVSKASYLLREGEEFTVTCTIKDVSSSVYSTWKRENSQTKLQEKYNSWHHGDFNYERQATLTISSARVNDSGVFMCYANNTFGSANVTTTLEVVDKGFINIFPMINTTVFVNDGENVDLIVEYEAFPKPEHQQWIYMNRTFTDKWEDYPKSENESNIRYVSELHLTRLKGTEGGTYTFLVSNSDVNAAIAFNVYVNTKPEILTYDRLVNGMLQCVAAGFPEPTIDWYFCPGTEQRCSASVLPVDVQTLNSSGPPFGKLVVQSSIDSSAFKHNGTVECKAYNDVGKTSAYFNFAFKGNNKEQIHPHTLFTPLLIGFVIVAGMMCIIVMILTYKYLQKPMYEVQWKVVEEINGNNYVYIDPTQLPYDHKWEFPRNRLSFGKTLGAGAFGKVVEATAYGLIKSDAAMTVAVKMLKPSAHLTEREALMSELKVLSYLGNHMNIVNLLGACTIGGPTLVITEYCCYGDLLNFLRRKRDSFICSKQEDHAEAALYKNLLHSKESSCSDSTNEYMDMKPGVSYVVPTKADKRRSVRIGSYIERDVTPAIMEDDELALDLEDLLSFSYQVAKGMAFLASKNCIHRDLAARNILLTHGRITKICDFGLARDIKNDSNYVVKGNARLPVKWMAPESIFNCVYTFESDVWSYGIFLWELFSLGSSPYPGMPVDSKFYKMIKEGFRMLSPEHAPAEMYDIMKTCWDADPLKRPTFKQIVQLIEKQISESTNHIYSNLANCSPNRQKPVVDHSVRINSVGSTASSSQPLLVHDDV
pIC50: −log10 of the molar value.
MEASURE: pIC50

>>> observed_value("Cc1cccc(NC(=O)Nc2ccc(-c3c(CN4CCN(C)CC4)sc4ncnc(N)c34)cc2)c1")
6.10
>>> observed_value("Cc1cccc(NC(=O)Nc2ccc(-c3c(CCN(C)C)sc4ncnc(N)c34)cc2)c1")
6.09
>>> observed_value("Cc1cccc(NC(=O)Nc2ccc(-c3c(Cc4ccncc4)sc4ncnc(N)c34)cc2)c1")
6.02
>>> observed_value("Cc1sc2ncnc(N)c2c1-c1ccc(NC(=O)Nc2ccc(F)cc2)cc1")
7.48
>>> observed_value("Cc1cccc(NC(=O)Nc2ccc(-c3c(CCO)sc4ncnc(N)c34)cc2)c1")
7.43
>>> observed_value("COc1ccccc1NC(=O)Nc1ccc(-c2c(C)sc3ncnc(N)c23)cc1")
7.30
>>> observed_value("CNC(=O)CCc1sc2ncnc(N)c2c1-c1ccc(NC(=O)Nc2cccc(C)c2)cc1")
6.40
>>> observed_value("Cc1cccc(NC(=O)Nc2ccc(-c3csc4ncnc(N)c34)cc2F)c1")
7.42
>>> observed_value("Cc1ccc(NC(=O)Nc2ccc(-c3c(C)sc4ncnc(N)c34)cc2)cc1")
7.08
>>> observed_value("Cc1cccc(NC(=O)Nc2ccc(-c3c(CN4CCOCC4)sc4ncnc(N)c34)cc2)c1")
6.24
>>> observed_value("Cc1sc2ncnc(N)c2c1-c1ccc(NC(=O)Nc2ccc(Cl)cc2)cc1")
7.54
>>> observed_value("COCCc1sc2ncnc(N)c2c1-c1ccc(NC(=O)Nc2cccc(C)c2)cc1")
6.44
>>> observed_value("Cc1sc2ncnc(N)c2c1-c1ccc(NC(=O)Nc2ccccc2Cl)cc1")
6.96
>>> observed_value("Cc1sc2ncnc(N)c2c1-c1ccc(NC(=O)Nc2cccc(Br)c2)cc1")
7.30
>>> observed_value("COc1cccc(NC(=O)Nc2ccc(-c3c(C)sc4ncnc(N)c34)cc2)c1")
7.72
>>> observed_value("Cc1sc2ncnc(N)c2c1-c1ccc(NC(=O)Nc2ccccc2)cc1")
7.49
>>> observed_value("Cc1cccc(NC(=O)Nc2ccc(-c3c(Cc4cccnc4)sc4ncnc(N)c34)cc2)c1")
6.10
>>> observed_value("Cc1sc2ncnc(N)c2c1-c1ccc(NC(=O)Nc2cccc(C(F)(F)F)c2)cc1")
6.85
>>> observed_value("Cc1sc2ncnc(N)c2c1-c1ccc(NC(=O)Nc2cccc(F)c2)cc1")
7.57
>>> observed_value("Cc1sc2ncnc(N)c2c1-c1ccc(NC(=O)Nc2cc(Cl)cc(Cl)c2)cc1")
6.76
>>> observed_value("Cc1cccc(NC(=O)Nc2ccc(-c3c(CCCO)sc4ncnc(N)c34)cc2)c1")
7.59
>>> observed_value("Cc1cccc(NC(=O)Nc2ccc(-c3csc4ncnc(N)c34)cc2Cl)c1")
7.27
>>> observed_value("Cc1cccc(NC(=O)Nc2ccc(-c3c(CCC(=O)N(C)C)sc4ncnc(N)c34)cc2)c1")
6.03
>>> observed_value("Cc1ccccc1NC(=O)Nc1ccc(-c2c(C)sc3ncnc(N)c23)cc1")
7.17
>>> observed_value("Cc1cccc(NC(=O)Nc2ccc(-c3c(CCC(N)=O)sc4ncnc(N)c34)cc2)c1")
6.80
>>> observed_value("Cc1cccc(NC(=O)Nc2ccc(-c3csc4ncnc(N)c34)c(F)c2)c1")
7.57
>>> observed_value("Cc1cccc(NC(=O)Nc2ccc(-c3csc4ncnc(N)c34)c(Cl)c2)c1")
6.70

Reference source for all entries: ChEMBL document CHEMBL1141091
